TARGET_DESC: T1, Histidine-tagged human 4-1BB protein (h4-1BB-His) (human, UniProt Q07011 24-186)
T1 construct: not shown: histidine tag
TEST_DESCRIPTION: SPR (Biacore T200), antibody on Protein A chip, h4-1BB-His injected;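 note: dissociation phase followed for 300 s, Kd derived as koff divided by kon from the kinetic fit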
QUANTITY_MEASURED: log10(koff) (log10 of the value in s⁻¹)

BINDER	log10(koff)
69-3C2-mHvKv-IgG2 (antibody, V domains shown) VH: DVQLVESGGGLVQPGGSRKLSCAASGFSFSSFGMHWMRQAPEKGLEWVAYISSGSSAIYYADTVKGRFTISRDNPKNTLFLQMTSLRSEDTAMYYCARDWVDYWGQGTTLTVSS VL: DIQMTQSPASLSVSVGETVTITCRASENIYSNLVWYQQKQGKSPQLLVYTATKLTNGVPSRFSGSGSGTQYSLKINSLQSEDFGTYYCQHFWDTPYTFGGGTKLEMK	-3.28
1C4-H3K4-IgG4 (antibody, V domains shown, humanized) VH: QVQMVQSGAEVKKPGASVKLSCKASGFTFSSSYINWLRQAPGQSLEWIGWIFAGTGGTYYNQKFTGRAQITRDTSASTAYMELSSLRSEDTAIYYCARHSPRATLFDFWGQGTTLTVSS VL: EIVLTQSPATLSASPGERVTMSCRASSSVNHMHWYQQRPGFSPRAWIYATSNLASGIPARFSGSGSGTSYSLTISSLEPEDFATYYCQQWSSNPYTFGGGTKLEIK	-3.32
5F9-H2K3-IgG4 (antibody, V domains shown, humanized) VH: QVQLKESGPGLVKPSETLSLTCTVSGFSLTTYDISWVRQPPGKGLEWLGVIWTGGGTNYNSSFMSRVTISKDTSKNQVSLKLSSVTAADTAIYYCERVDYWGQGTTVTVSS VL: DVVMTQSPLSLPVTLGQPASISCRSSQSLVHSNGNTYLHWYQQRPGQSPKLLIYKVSNRFSGVPDRFSGSGSGTAFTFKISRVEAEDVGVYYCSQNTHVPWTFGGGTKLEIK	-2.68
5F9-H2K1-IgG4 (antibody, V domains shown, humanized) VH: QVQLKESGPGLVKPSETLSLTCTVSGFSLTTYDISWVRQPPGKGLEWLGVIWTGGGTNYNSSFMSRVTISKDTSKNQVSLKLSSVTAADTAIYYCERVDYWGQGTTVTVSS VL: DVVMTQSPLSLPVTLGQPASISCRSSQSLVHSNGNTYLHWFQQRPGQSPRLLIYKVSNRFSGVPDRFSGSGSGTAFTFKISRVEAEDVGVYYCSQNTHVPWTFGGGTKVEIK	-2.65
54-8B11-mHvKv-IgG2 (antibody, V domains shown) VH: QIQLVQSGPELKKPGETVKISCKASKFTFTNYGMNWVKQAPGKALKWMGWINTYTGEPTYADDFKGRFDFSLETSATTAYLQINNLKNEDTATYFCARREYYPWVFVYWGQGTLVTVSA VL: ENVLTQSPAIMSASPGEKVTMTCSASSSVSYMHWYQQKSSTSPKLWIYDTSKLASGVPGRFSGSGSGNSYSLTISSMEAEDVATYYCFQGSGYPLTFGGGTKLEIK	-2.30

Value source: patent US20240092922A1
